quantity measured: melting point

Worked cases, melting point given:
[
  {
    "compound": "CC(C)C1(C)N=C(c2ncc(C3OCC(C)(C)CO3)cc2C(=O)O)NC1=O (stereo not given)",
    "measured value": "163 to 170 °C"
  },
  {
    "compound": "CC(C)(O)CCCc1onc(-c2ccccc2)c1-c1ccc(S(N)(=O)=O)cc1",
    "measured value": "184 to 185 °C"
  }
]

Query :: Requested field: melting point. Item: COc1ccccc1[C@@]1(O)[C@H](O)CC(c2ccccc2)(c2ccccc2)[C@@H]2CN(C(=O)Cc3cccc4ccccc34)C[C@@H]21 (racemic)
Result :: 188 to 190 °C

Query :: Requested field: melting point. Item: Cc1ccc(CC(CNC(=O)C(C)c2ccc(NS(C)(=O)=O)c(F)c2)COC(=O)C(C)(C)C)cc1C (stereo not given)
Result :: 46 to 48 °C

Query :: Requested field: melting point. Item: CCCCN1CCCC1CNC(=O)c1cc(S(N)(=O)=O)cc2c1OC(C)C2 (stereo not given)
Result :: 170 °C

Values from a melting point compilation (Tetko et al.; mined from patent text by program, amines drawn as free bases though some values may be those of a salt)
